Recorded values, source paper PMC9482650.

Below is a list of entries, each paired with its recorded pKd value.
molecular target: SNX27, Q96L92; test: holdup assay; design: key: below the threshold = too weak to quantify, mostly under pKd 3.1 to 4; conditions: plain residues with an end cap or a label only (N-terminal biotin on a linker: ado-ado)

{"binder": "TKEIPNCTSV [SORCS3, Q9UPU3]", "pKd": 5.16}
{"binder": "KEKASTETEC [TRPM1, Q7Z4N2]", "pKd": 4.53}
{"binder": "FLVTEFNVML [DFNB31, Q9P202]", "pKd": 4.4}
{"binder": "PSVYSRSQYV [CLDN8, P56748]", "pKd": 3.75}
{"binder": "ATKDKKITTV [EXOC4, Q96A65]", "pKd": 4.38}
